Taken from paper PMC4552634.

- Tested on: P. falciparum stage V gametocytes
- Parameters: BacTiter-Glo ATP luminescence viability of purified stage V gametocytes in 384-well plates, per cent inhibition versus DMSO
- applied conditions: 48 h, 5 µM; inhibitor
Out of some 13,000 compounds screened, about 3,200 (25%) showed an effect of 50% or more. The list shows a part of the results.
% Inhibition reference

compound: Cc1c(Cc2ccc(C(C)C)cc2)cnc2nc(N)nc(N)c12
% Inhibition: 4.775%
//
compound: CN1CCN(c2ccnc3ccc(NC(=O)Nc4ccccc4Br)cc23)CC1
% Inhibition: 15.44%
//
compound: CC(C)CN1CCC(N(C)c2cc(NC(=O)c3cccc(F)c3)ccn2)CC1
% Inhibition: -32.51%

Let us move to another entry and its % Inhibition.
## Input Lab note: P. falciparum stage V gametocytes assay, enter % Inhibition for "Cc1ccc2c(c1)nc(N)n2C[C@H](O)c1ccccc1" here
## Output 42.68%

----------
- System: P. falciparum stage V gametocytes
- Parameters: BacTiter-Glo ATP luminescence viability of purified stage V gametocytes in 384-well plates, per cent inhibition versus DMSO
- applied conditions: 48 h, 5 µM; inhibitor
About 3,200 (25%) of roughly 13,000 compounds showed an effect of 50% or more. The list shows a part of the results.
assay metric: % Inhibition (%)
Supply the numeric figure in %, leaving out any unit text.

Past entries and their recorded results:
smiles repr: Nc1nccc2ccc(Oc3ccncc3)cc12
% Inhibition, %: 51.03
--
smiles repr: Nc1nccc2ccc(-c3ccsc3)cc12
% Inhibition, %: 53.31
--
smiles repr: Nc1nccc2ccc(-c3ccc4nccn4c3)cc12
% Inhibition, %: 49.74
--
smiles repr: Cc1cc(NCCC(=O)Nc2ccccc2)nc(NCCc2ccc(F)cc2)n1
% Inhibition, %: 44.82

## Input Output % Inhibition of "COc1cc(SC)c(Br)cc1-c1nc2ccncc2[nH]1"
## Output -13.77

----------
- Tested on: P. falciparum stage V gametocytes
- Design: BacTiter-Glo ATP luminescence viability of purified stage V gametocytes in 384-well plates, per cent inhibition versus DMSO
- applied conditions: 48 h, 5 µM; inhibitor
Hit rate of the full screen: of about 13,000 compounds, about 3,200 (25%) showed an effect of 50% or more. The list shows a part of the results.
% Inhibition reference
Supply the numeric figure in %, leaving out any unit text.

Past entries and their recorded results:
compound: O=S(=O)(c1ccccc1)n1ccc2cc(Nc3ncnc4cc(C#C[C@H]5CCCN5)sc34)ccc21 [TCMDC-138913]
unit of measure: %
% Inhibition: 83.41
//
compound: CSC1=NC2(CC(c3cccc(C)c3)c3cc(Cl)c(O)cc3O2)CC(C)(C)N1 (stereo not drawn) [TCMDC-125563]
unit of measure: %
% Inhibition: 19.29
//
compound: Cc1ccccc1CNc1noc(-c2c(F)cccc2Cl)n1 [TCMDC-133373]
unit of measure: %
% Inhibition: 21.36
//
compound: CC(Oc1cccc(Cl)c1)C(=O)N1CCc2ccccc21 (stereo not drawn) [TCMDC-123685]
unit of measure: %
% Inhibition: -22.19
//
compound: NC1=NC(c2ccccc2)N(OCc2ccccc2)C(N)=N1 (stereo not drawn) [TCMDC-131586]
unit of measure: %
% Inhibition: -5.605

## Input Output % Inhibition of Clc1cc(Nc2ncnc3cc(C#C[C@H]4CCCN4)sc23)cc2[nH]c(Cc3ccccc3)nc12 [TCMDC-134519]
## Output 58.91

## Input Output % Inhibition of CSc1c(CNCCCNc2cc(=O)c3ccccc3[nH]2)[nH]c2ccccc12 [TCMDC-140648]
## Output -17.76

## Input Output % Inhibition of CCNC(=O)N1CCc2ccc(Oc3nc(NCc4ccccc4OC)ncc3C)cc2CC1 [TCMDC-133414]
## Output 17.56

## Input Output % Inhibition of Cc1cccc2nc(-c3ccc(-c4cccc(NC(=O)C(C)CN(C)C)c4)s3)[nH]c12 (stereo not drawn) [TCMDC-137116]
## Output 33.05

## Input Output % Inhibition of CCOc1ccccc1CNc1nccc(NCc2ccccc2OC)n1 [TCMDC-135119]
## Output 40.21

## Input Output % Inhibition of COc1ccccc1CNc1ccnc(N2CC(Oc3ccc(F)cc3)C2)n1 [TCMDC-135118]
## Output 57.67

## Input Output % Inhibition of CCCc1cnc2nc(N)nc(N)c2c1C [TCMDC-138066]
## Output 12.33

## Input Output % Inhibition of Clc1ccc(Cc2nc3ccccc3[nH]2)cc1Cl [TCMDC-125878]
## Output -7.507

## Input Output % Inhibition of Cc1nc(-c2nc(N3CCC(C(N)=O)CC3)ncc2-c2ccsc2)sc1C [TCMDC-125362]
## Output 25.42

## Input Output % Inhibition of COc1cc(CCCOc2c(N)nc(N)nc2N)cc(OC)c1OC [TCMDC-131361]
## Output 8.778

----------
- System: P. falciparum stage V gametocytes
- Design: BacTiter-Glo ATP luminescence viability of purified stage V gametocytes in 384-well plates, per cent inhibition versus DMSO
- applied conditions: 48 h, 5 µM; inhibitor
The campaign covered roughly 13,000 compounds. About 3,200 (25%) showed an effect of 50% or more. The list shows a part of the results.
assay metric: % Inhibition (%)
Supply the numeric figure in %, leaving out any unit text.

Past entries and their recorded results:
compound: Cc1cccc2nc(-c3ccc(-c4cccc(CN5CCCC(O)C5)c4)s3)[nH]c12.O=C(O)C(F)(F)F (stereo not drawn)
experimental value: -3.04
//
compound: COC(=O)c1cccc(CNCc2cccc(-c3cccc(-c4nc5cccc(C)c5[nH]4)c3)c2)c1.O=C(O)C(F)(F)F
experimental value: 7.725
//
compound: COc1ccc(Nc2nccc(NCCNC(=O)Nc3ccccc3F)n2)cc1
experimental value: -48.4
//
compound: Cc1cccc2nc(-c3ccc(-c4cccc(CN5CCC(C(N)=O)CC5)c4)s3)[nH]c12.O=C(O)C(F)(F)F
experimental value: -2.69
//
compound: Cc1cccc2nc(-c3ccc(-c4cccc(CN5CCC(CCN6CCCCC6)CC5)c4)s3)[nH]c12.O=C(O)C(F)(F)F
experimental value: 107.3

## Input Lab note: P. falciparum stage V gametocytes assay, enter % Inhibition for NC1CCCN(Cc2cccc(-c3ccc(-c4nc5ccccc5[nH]4)s3)c2)C1.O=C(O)C(F)(F)F (stereo not drawn) here
## Output 15.45

## Input Lab note: P. falciparum stage V gametocytes assay, enter % Inhibition for "Cc1cccc2nc(-c3ccc(-c4cccc(CN5CCCCC5)c4)s3)[nH]c12.O=C(O)C(F)(F)F" here
## Output -13.55

## Input Lab note: P. falciparum stage V gametocytes assay, enter % Inhibition for "O=C(NCCNc1nc(NCCNC(=O)Nc2ccccc2)c2ccc(=O)n(-c3c(F)cccc3F)c2n1)Nc1ccccc1" here
## Output 74.46

## Input Lab note: P. falciparum stage V gametocytes assay, enter % Inhibition for Cc1cccc2nc(-c3ccc(-c4cccc(CNCC5CCCO5)c4)cc3)[nH]c12.O=C(O)C(F)(F)F (stereo not drawn) here
## Output -5.371

## Input Lab note: P. falciparum stage V gametocytes assay, enter % Inhibition for Cc1cccc2nc(-c3ccc(-c4cccc(CN5CCC(N)C5)c4)s3)[nH]c12.O=C(O)C(F)(F)F (stereo not drawn) here
## Output 89.08

----------
- Tested on: P. falciparum stage V gametocytes
- Parameters: BacTiter-Glo ATP luminescence viability of purified stage V gametocytes in 384-well plates, per cent inhibition versus DMSO
- applied conditions: 48 h, 5 µM; inhibitor
Hit rate of the full screen: of about 13,000 compounds, about 3,200 (25%) showed an effect of 50% or more. This is one part of the list.
assay metric: % Inhibition
Dear colleague, please send the value followed by its unit.

compound: Cc1c(CCNC(=O)CCCN2CC(C)CC(C)C2)c2ccccc2n1C (centres unmarked) [TCMDC-131457]
experimental value: 10.13%

## Input Output % Inhibition of CC(=O)C1=NN(c2ccc(C)cc2)C(c2cccs2)N1c1ccccc1 (centres unmarked) [TCMDC-125627]
## Output -78.13%

## Input Output % Inhibition of CC1CN(CCCn2c3ccccc3c3ccc(C(=O)CCCN(C)C)cc32)CC(C)N1 (centres unmarked) [TCMDC-137742]
## Output 88.42%

## Input Output % Inhibition of O=C(Cc1c[nH]cn1)Nc1ccc(-c2ccc(-c3nc4ccccc4[nH]3)s2)cc1 [TCMDC-136939]
## Output -25.08%

## Input Output % Inhibition of CCC[C@@H]([C@@H](CC1CCCCC1)C(=O)N[C@H](C(=O)Nc1nccs1)C(C)(C)SCCOCCOCC)N(O)C=O [TCMDC-137777]
## Output 29.4%

## Input Output % Inhibition of CCC1CN(CCCn2c3ccccc3c3ccccc32)C(CC)CN1 (centres unmarked) [TCMDC-138116]
## Output 25.71%

## Input Output % Inhibition of Cc1nc2ccc3ccc(CNc4ccc(C(=O)CC(CCC(=O)O)C(=O)O)cc4)cc3c2c(=O)[nH]1 (centres unmarked) [TCMDC-137855]
## Output 12.05%

## Input Output % Inhibition of CSc1cccc(NC(=O)Nc2ccc(I)c(OCCN(C)C)c2)c1 [TCMDC-139123]
## Output 6.817%
